Entry source: patent US20240335443A1

Below: a set of entries, each annotated with reported IC50.
- System: IL-23 induced STAT3 in HEK-Blue™ IL-23 cells
- method description: IL-23 induced STAT3 QUANTI-Blue reporter assay in HEK-Blue IL-23 cells
- Assay type: cell-based
- study conditions: HEK-Blue IL-23 cells, IL-23 0.1 ng/mL, SEAP levels; class symbols; read-out: IL23 reporter assay (IC50 nM)

Query: Enter IC50 (test system IL-23 induced STAT3 in HEK-Blue™ IL-23 cells) for CNc1cc(Nc2cccn(-c3ccn(C)n3)c2=O)nn2c(C(=O)NC(C)c3ncco3)cnc12 (single isomer, unassigned) [Compound 49b]
Result: ≥ 1000 nM

***
Query: // fetch IC50 for CNc1cc(Nc2cccn(-c3ccccn3)c2=O)nn2c(C(=O)NC3CCC4CCOC43)cnc12 (racemic) [Compound 10b] ; system: IL-23 induced STAT3 in HEK-Blue™ IL-23 cells
Result: ≥ 1000 nM

Query: Consider the molecule CNc1cc(Nc2cccn([C@H]3C[C@H](OC)C3)c2=O)nn2c(C(=O)NC3CCC4CCOC43)cnc12 (single isomer, unassigned) [Compound 88a] tested on IL-23 induced STAT3 in HEK-Blue™ IL-23 cells; state its IC50.
Result: < 10 nM
